Hello, the source for this data is patent US20160122421A1, in case you need it.

- tested.target: eTau 4 (FIG. 17)
- test.details: relative binding affinity, method not named (Table 4); fifth column, headed eTau 4
Catalogue of pKd values
Bear in mind: pKd is minus log10 of a mol/L concentration; give just that figure.

INPUT: Note pKd for the binder shown: VH1/Vk4 (antibody, V domains shown, member of the group m7; also called humanized IPN002 variant VH1/Vk4) VH: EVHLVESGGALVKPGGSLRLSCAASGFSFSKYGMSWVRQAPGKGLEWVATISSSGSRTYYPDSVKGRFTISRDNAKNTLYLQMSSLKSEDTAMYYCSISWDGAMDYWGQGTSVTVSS VL: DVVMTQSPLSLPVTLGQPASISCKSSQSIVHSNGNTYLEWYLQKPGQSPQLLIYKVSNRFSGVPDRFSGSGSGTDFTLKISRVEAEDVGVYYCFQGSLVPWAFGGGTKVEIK
OUTPUT: 9.57

More entries:
INPUT: Read off the recorded pKd for VH3/Vk4 (antibody, V domains shown, member of the group m7; also called humanized IPN002 variant VH3/Vk4) VH: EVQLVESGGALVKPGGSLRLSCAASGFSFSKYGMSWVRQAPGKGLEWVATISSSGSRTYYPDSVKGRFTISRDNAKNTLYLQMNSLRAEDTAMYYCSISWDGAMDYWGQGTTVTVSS VL: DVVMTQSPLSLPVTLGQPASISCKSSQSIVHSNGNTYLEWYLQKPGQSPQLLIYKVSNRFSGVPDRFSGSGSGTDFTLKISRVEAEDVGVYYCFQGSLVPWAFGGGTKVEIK
OUTPUT: 9.42

INPUT: # return recorded pKd for input VH1/Vk2 (antibody, V domains shown, member of the group m7; also called humanized IPN002 variant VH1/Vk2) VH: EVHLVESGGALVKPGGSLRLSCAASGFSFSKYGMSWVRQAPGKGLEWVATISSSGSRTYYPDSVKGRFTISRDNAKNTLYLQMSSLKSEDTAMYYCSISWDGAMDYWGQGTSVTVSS VL: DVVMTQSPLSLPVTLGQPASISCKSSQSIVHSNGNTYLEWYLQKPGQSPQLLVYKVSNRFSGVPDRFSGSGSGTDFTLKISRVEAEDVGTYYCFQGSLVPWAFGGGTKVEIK
OUTPUT: 9.49
